Every entry's value here was drawn from patent US20060058383A1.

system: human brain tumor cells (U87MG); assay: MTT assay, 72 hour incubation; format: cell-based; settings: U-87 MG
reported_metric: IC50

### Prompt Param readout = IC50; param system = human brain tumor cells (U87MG); param query = O=C(O)O.O=C([O-])C(=O)CBr.[Na+] [S-Glycolycin] ; response: value
### Response ~30 µM

###

test system: HL-60/AR cells; test: MTT cytotoxicity, drug-resistant clone versus parental cells; assay type: cell-based, human; details: MTT assay
reported_metric: sensitivity of HL-60/AR compared to parental HL-60 cells

molecule	value
COc1cccc2c1C(=O)c1c(O)c3c(c(O)c1C2=O)C[C@@](O)(C(=O)CO)C[C@@H]3O[C@H]1C[C@H](N)[C@H](O)[C@H](C)O1	highly resistant
O=C(O)C(=O)CBr [3-BrPA, 3-bromo-2-oxopropionic acid, reference compound]	equally sensitive
CC[C@]1(O)C[C@H]2CN(CCc3c([nH]c4ccccc34)[C@@](C(=O)OC)(c3cc4c(cc3OC)N(C=O)[C@H]3[C@@](O)(C(=O)OC)[C@H](OC(C)=O)[C@]5(CC)C=CCN6CC[C@]43[C@@H]65)C2)C1	highly resistant
O=C(O)O.O=C([O-])C(=O)CBr.[Na+]	equally sensitive
